I'd appreciate it if you could supply TGI values for the items below.
System: NCI-H522 lung
Assay: NCI tumour cell line growth inhibition, 48 h

Below, 5 compounds whose answers are already recorded.
* CC1CC(Nc2ccc(Br)cc2)N(C(=O)c2ccc(Br)cc2)O1 (stereo unspecified) | > 10 µM
* CN1CC=C(c2c(N)nc(N)[nH]c2=O)CC1 | > 100 µM
* C=C1CCCCCCCCC/C=C/1SCCCSC | > 100 µM
* Cn1c(=S)c2[nH]c(SCCCc3ccccc3)nc2n(C)c1=O | > 100 µM
* O=c1[nH]c2nc3ccccc3c(=O)n2/c1=C/c1cccs1 | > 100 µM

Record TGI for all entries; do not skip any.
1. CC(=O)[CH-]C(=O)c1ccccc1.CC(=O)[CH-]C(=O)c1ccccc1.O=S(=O)([O-])c1cc([O-])c2c([O-])cc(S(=O)(=O)[O-])cc2c1.[Na+].[Ti+4]
2. NC(=O)c1cn(Cc2ccccc2)c(=O)n1Cc1ccccc1
3. C=C1C(O)C2C(=C(C)C13CC3)C(=O)C(C)(C)C2OC (stereo unspecified)
4. CN1CCCOC(c2ccc(Cl)cc2)O1 (stereo unspecified)

Response:
> 100 µM
> 100 µM
> 100 µM
> 100 µM

Record TGI for all entries; do not skip any.
1. CC12CCC(=O)N1c1cccnc1N2 (stereo unspecified)
2. O=C1C=CC(=CC=C2C=CN(CCCCCCCCCCC(=O)NCCCCCCCCCCCC(=O)O)C=C2)C=C1

Response:
1: > 100 µM; 2: > 100 µM
